Target: UniProt:P32485
Assay: in vitro radiometric kinase assay, single dose […]
Format: biochemical
metric-name: remaining activity at 0.1 µM

>>> measurement("Fc1ccc(-c2nnn(CC3CC3)c2-c2ccncc2)cc1 [1a]")
"50 to 70%"
>>> measurement("Fc1ccc(-c2nnn(Cc3ccccc3)c2-c2ccncc2)cc1 [1c]")
"50 to 70%"
>>> measurement("c1ccc(Cn2nnc(-c3ccccc3)c2-c2ccncc2)cc1 [1b]")
"50 to 70%"
>>> measurement("Brc1ccc(-c2nnn(Cc3ccccc3)c2-c2ccncc2)cc1 [1e]")
"50 to 70%"
>>> measurement("C[C@H](Nc1cc(-c2c(-c3ccc(F)cc3)nnn2Cc2ccccc2)ccn1)c1ccccc1 [4e]")
"35 to 40%"
>>> measurement("Clc1ccc(-c2nnn(Cc3ccccc3)c2-c2ccncc2)cc1 [1d]")
"50 to 70%"
>>> measurement("CC1CCC(Nc2cc(-c3c(-c4ccc(F)cc4)nnn3Cc3ccccc3)ccn2)CC1 (stereo not shown) [4d]")
"35 to 40%"

* * *

Target protein (sequence): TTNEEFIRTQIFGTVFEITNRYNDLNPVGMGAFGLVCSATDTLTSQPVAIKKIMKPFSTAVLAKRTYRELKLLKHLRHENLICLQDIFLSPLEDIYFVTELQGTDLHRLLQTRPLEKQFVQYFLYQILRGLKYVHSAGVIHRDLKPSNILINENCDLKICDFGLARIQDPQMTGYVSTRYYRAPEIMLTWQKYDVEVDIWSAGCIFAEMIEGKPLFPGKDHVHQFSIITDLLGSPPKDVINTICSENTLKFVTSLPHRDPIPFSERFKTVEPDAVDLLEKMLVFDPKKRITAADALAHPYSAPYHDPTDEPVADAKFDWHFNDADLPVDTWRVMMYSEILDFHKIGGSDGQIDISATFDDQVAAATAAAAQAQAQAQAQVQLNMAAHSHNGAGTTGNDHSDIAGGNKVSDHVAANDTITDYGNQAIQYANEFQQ
metric-name: IC50 (nM)

>>> measurement("CC(C)Nc1cc(-c2c(-c3ccc(F)cc3)nnn2Cc2ccccc2)ccn1")
6.2
